Attribution: ChEMBL document CHEMBL4699616

pIC50: −log10 of the molar value.
# collection of pIC50 values tested on Cholinesterase (Homo sapiens)
# Sequence (P06276 whole entry): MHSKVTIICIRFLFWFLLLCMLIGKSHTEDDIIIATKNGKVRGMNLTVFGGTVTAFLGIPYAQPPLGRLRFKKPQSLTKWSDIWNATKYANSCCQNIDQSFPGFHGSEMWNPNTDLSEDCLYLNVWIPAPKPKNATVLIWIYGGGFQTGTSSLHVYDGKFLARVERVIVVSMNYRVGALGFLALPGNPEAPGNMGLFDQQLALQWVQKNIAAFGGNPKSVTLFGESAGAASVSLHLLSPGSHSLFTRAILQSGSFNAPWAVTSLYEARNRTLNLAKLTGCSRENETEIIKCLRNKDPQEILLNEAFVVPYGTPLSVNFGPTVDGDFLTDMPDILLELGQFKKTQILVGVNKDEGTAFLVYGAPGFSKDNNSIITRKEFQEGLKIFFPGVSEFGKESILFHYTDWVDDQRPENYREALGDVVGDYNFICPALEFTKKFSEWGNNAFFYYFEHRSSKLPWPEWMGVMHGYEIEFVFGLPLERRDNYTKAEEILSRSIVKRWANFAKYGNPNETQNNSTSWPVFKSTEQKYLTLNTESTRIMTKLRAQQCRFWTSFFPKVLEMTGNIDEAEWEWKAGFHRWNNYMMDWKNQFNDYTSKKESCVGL
readoutName: pIC50

{"columns": ["compound", "valueObserved"],
 "data": [
  ["O=C(CN1CCC2c3ccccc3NC2C1)Nc1ccc(/C=C2\\CCn3c2nc2ccccc2c3=O)cc1 (stereo not given)", 6.22],
  ["O=C(CCCCCN1CCC2c3ccccc3NC2C1)Oc1ccc(/C=C2\\CCn3c2nc2ccccc2c3=O)cc1 (stereo not given)", 6.29],
  ["O=C(CN1CCC2c3ccccc3NC2C1)Oc1ccc(/C=C2\\CCn3c2nc2ccccc2c3=O)cc1 (stereo not given)", 6.62],
  ["O=C(CCN1CCC2c3ccccc3NC2C1)Nc1ccc(/C=C2\\CCn3c2nc2ccccc2c3=O)cc1 (stereo not given)", 6.14],
  ["O=C(CCCN1CCC2c3ccccc3NC2C1)Oc1ccc(/C=C2\\CCn3c2nc2ccccc2c3=O)cc1 (stereo not given)", 7.36],
  ["O=C(CCCCN1CCC2c3ccccc3NC2C1)Nc1ccc(/C=C2\\CCn3c2nc2ccccc2c3=O)cc1 (stereo not given)", 7.48],
  ["O=C(CCCN1CCC2c3ccccc3NC2C1)Nc1ccc(/C=C2\\CCn3c2nc2ccccc2c3=O)cc1 (stereo not given)", 6.67],
  ["O=C(CCCCCN1CCC2c3ccccc3NC2C1)Nc1ccc(/C=C2\\CCn3c2nc2ccccc2c3=O)cc1 (stereo not given)", 6.31],
  ["O=C(CCCCN1CCC2c3ccccc3NC2C1)Oc1ccc(/C=C2\\CCn3c2nc2ccccc2c3=O)cc1 (stereo not given)", 6.37],
  ["O=C(CCN1CCC2c3ccccc3NC2C1)Oc1ccc(/C=C2\\CCn3c2nc2ccccc2c3=O)cc1 (stereo not given)", 7.16]
]}

* * *

systemUnderTest: Acetylcholinesterase (Homo sapiens)
experimentNotes: Inhibition of human erythrocytes AChE by Ellman's method
Format: cell-based, Erythrocyte
pIC50: −log10 of the molar value.
Recorded pIC50 by entry
readoutName: pIC50

{"columns": ["compound", "readoutName", "valueObserved"],
 "data": [
  ["O=C(CCCCN1CCC2c3ccccc3NC2C1)Oc1ccc(/C=C2\\CCn3c2nc2ccccc2c3=O)cc1 (centres undefined)", "pIC50", 8.97],
  ["O=C(CCN1CCC2c3ccccc3NC2C1)Oc1ccc(/C=C2\\CCn3c2nc2ccccc2c3=O)cc1 (centres undefined)", "pIC50", 9.03],
  ["O=C(CCCN1CCC2c3ccccc3NC2C1)Oc1ccc(/C=C2\\CCn3c2nc2ccccc2c3=O)cc1 (centres undefined)", "pIC50", 7.78],
  ["O=C(CCN1CCC2c3ccccc3NC2C1)Nc1ccc(/C=C2\\CCn3c2nc2ccccc2c3=O)cc1 (centres undefined)", "pIC50", 8.01]
]}

* * *

Recorded inhibition by entry
systemUnderTest: Acetylcholinesterase (Homo sapiens)
experimentNotes: Inhibition of human erythrocytes AChE at 1 uM by Ellman's method relative to control
Assay type: cell-based
particulars: Erythrocyte

{"columns": ["compound", "inhibition"],
 "data": [
  ["O=c1c2ccccc2nc2n1CCC2", "29.7%"],
  ["O=C(CN1CCC2c3ccccc3NC2C1)Nc1ccc(/C=C2\\CCn3c2nc2ccccc2c3=O)cc1 (centres undefined)", "21.6%"],
  ["O=C(O)C1NCCC2c3ccccc3NC12 (centres undefined)", "29.7%"],
  ["O=C(CCCN1CCC2c3ccccc3NC2C1)Nc1ccc(/C=C2\\CCn3c2nc2ccccc2c3=O)cc1 (centres undefined)", "49.9%"]
]}

* * *

systemUnderTest: Amyloid-beta precursor protein (Homo sapiens, UniProt P05067)
Sequence (P05067 whole entry): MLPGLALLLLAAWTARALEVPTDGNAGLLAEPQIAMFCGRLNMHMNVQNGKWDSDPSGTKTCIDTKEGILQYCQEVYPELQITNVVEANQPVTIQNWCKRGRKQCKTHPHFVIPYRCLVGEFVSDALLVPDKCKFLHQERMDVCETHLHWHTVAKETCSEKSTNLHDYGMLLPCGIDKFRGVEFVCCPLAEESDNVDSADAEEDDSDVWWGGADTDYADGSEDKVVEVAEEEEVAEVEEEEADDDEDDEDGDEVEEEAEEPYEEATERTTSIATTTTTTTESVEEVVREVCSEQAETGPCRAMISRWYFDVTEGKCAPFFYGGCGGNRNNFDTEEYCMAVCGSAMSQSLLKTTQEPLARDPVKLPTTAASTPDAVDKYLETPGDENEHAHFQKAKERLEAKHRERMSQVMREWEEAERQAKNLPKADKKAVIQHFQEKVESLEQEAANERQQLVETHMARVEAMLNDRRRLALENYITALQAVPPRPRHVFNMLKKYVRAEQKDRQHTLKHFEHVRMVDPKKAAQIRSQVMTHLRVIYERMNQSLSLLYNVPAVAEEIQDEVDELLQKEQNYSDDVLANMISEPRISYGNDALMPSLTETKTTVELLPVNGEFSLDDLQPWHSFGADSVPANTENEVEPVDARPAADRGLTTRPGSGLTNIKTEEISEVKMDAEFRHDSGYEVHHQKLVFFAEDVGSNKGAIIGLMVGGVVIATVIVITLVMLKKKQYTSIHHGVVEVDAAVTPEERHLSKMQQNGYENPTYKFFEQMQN
readoutName: IC50 (µM)

{"columns": ["compound", "valueObserved"],
 "data": [
  ["O=C(CCCCCN1CCC2c3ccccc3NC2C1)Nc1ccc(/C=C2\\CCn3c2nc2ccccc2c3=O)cc1 (centres undefined)", 18.3],
  ["O=C(CCCCN1CCC2c3ccccc3NC2C1)Oc1ccc(/C=C2\\CCn3c2nc2ccccc2c3=O)cc1 (centres undefined)", 2.05],
  ["O=C(CCN1CCC2c3ccccc3NC2C1)Oc1ccc(/C=C2\\CCn3c2nc2ccccc2c3=O)cc1 (centres undefined)", 19.7],
  ["O=C(CCCCCN1CCC2c3ccccc3NC2C1)Oc1ccc(/C=C2\\CCn3c2nc2ccccc2c3=O)cc1 (centres undefined)", 15.1]
]}

* * *

systemUnderTest: Acetylcholinesterase (Homo sapiens, UniProt P22303)
Sequence (P22303 whole entry): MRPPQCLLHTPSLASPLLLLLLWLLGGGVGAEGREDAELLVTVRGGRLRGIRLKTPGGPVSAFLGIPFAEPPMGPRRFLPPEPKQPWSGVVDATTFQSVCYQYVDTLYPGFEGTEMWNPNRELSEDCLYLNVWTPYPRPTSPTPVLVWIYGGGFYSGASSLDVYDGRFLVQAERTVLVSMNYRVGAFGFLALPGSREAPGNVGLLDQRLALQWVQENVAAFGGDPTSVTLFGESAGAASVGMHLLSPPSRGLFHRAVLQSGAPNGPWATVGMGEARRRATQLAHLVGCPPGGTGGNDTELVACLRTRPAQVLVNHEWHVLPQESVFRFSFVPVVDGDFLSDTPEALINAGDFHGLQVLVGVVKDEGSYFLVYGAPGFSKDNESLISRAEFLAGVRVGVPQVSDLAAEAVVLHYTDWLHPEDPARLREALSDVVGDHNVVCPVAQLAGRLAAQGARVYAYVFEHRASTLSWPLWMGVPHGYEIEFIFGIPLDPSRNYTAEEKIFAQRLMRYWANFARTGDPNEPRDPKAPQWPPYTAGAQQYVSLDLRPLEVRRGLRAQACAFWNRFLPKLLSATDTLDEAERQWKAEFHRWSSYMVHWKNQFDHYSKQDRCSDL
experimentNotes: Inhibition of human erythrocytes AChE using acetylthiocholine iodide as substrate preincubated for 4.5 mins followed by substrate addition measured after 2.5 mins by Ellman's method
Design: species or system Erythrocyte

{"columns": ["structure", "IC50 (nM)"],
 "data": [
  ["O=c1c2cc(OCCCN3CCCCC3)ccc2nc2n1CCC2", 50]
]}

* * *

Recorded pIC50 by entry
systemUnderTest: Acetylcholinesterase (Homo sapiens, UniProt P22303)
experimentNotes: Inhibition of human erythrocytes AChE by Ellman's method
Format: cell-based, Erythrocyte
pIC50: −log10 of the molar value.

{"columns": ["compound", "systemUnderTest", "pIC50"],
 "data": [
  ["O=C(CCCCCN1CCC2c3ccccc3NC2C1)Oc1ccc(/C=C2\\CCn3c2nc2ccccc2c3=O)cc1 (centres undefined)", "Acetylcholinesterase (Homo sapiens, UniProt P22303)", 7.97],
  ["O=C(CCCCN1CCC2c3ccccc3NC2C1)Nc1ccc(/C=C2\\CCn3c2nc2ccccc2c3=O)cc1 (centres undefined)", "Acetylcholinesterase (Homo sapiens, UniProt P22303)", 7.01],
  ["O=C(CCCCCN1CCC2c3ccccc3NC2C1)Nc1ccc(/C=C2\\CCn3c2nc2ccccc2c3=O)cc1 (centres undefined)", "Acetylcholinesterase (Homo sapiens, UniProt P22303)", 6.81],
  ["O=C(CN1CCC2c3ccccc3NC2C1)Oc1ccc(/C=C2\\CCn3c2nc2ccccc2c3=O)cc1 (centres undefined)", "Acetylcholinesterase (Homo sapiens, UniProt P22303)", 6.66]
]}

* * *

experimentNotes: Cytotoxicity against human SH-SY5Y cells assessed as cell viability at 10 uM after 48 hrs by MTT assay relative to control
Type: cell-based
particulars: read-out: Activity

{"columns": ["molecule", "viability at 48 h, 10 µM"],
 "data": [
  ["O=C(CCCCN1CCC2c3ccccc3NC2C1)Oc1ccc(/C=C2\\CCn3c2nc2ccccc2c3=O)cc1 (configuration not stated)", "> 76%"],
  ["O=C(CCN1CCC2c3ccccc3NC2C1)Oc1ccc(/C=C2\\CCn3c2nc2ccccc2c3=O)cc1 (configuration not stated)", "> 76%"]
]}

* * *

systemUnderTest: Amyloid-beta precursor protein (Homo sapiens)
experimentNotes: Inhibition of amyloid beta (1 to 42) (unknown origin) self aggregation at 20 uM incubated for 48 hrs by thioflavin-T fluorescence method relative to control
Recorded inhibition by entry

{"columns": ["compound", "inhibition (%)"],
 "data": [
  ["O=C(CCCCN1CCC2c3ccccc3NC2C1)Nc1ccc(/C=C2\\CCn3c2nc2ccccc2c3=O)cc1 (stereo not drawn)", 27.9],
  ["O=C(CCCN1CCC2c3ccccc3NC2C1)Nc1ccc(/C=C2\\CCn3c2nc2ccccc2c3=O)cc1 (stereo not drawn)", 21.2],
  ["O=c1c2ccccc2nc2n1CCC2", 20.7],
  ["O=C(CCCN1CCC2c3ccccc3NC2C1)Oc1ccc(/C=C2\\CCn3c2nc2ccccc2c3=O)cc1 (stereo not drawn)", 41.5],
  ["O=C(CN1CCC2c3ccccc3NC2C1)Nc1ccc(/C=C2\\CCn3c2nc2ccccc2c3=O)cc1 (stereo not drawn)", 37.5],
  ["O=C(CN1CCC2c3ccccc3NC2C1)Oc1ccc(/C=C2\\CCn3c2nc2ccccc2c3=O)cc1 (stereo not drawn)", 38.8],
  ["O=C(CCN1CCC2c3ccccc3NC2C1)Nc1ccc(/C=C2\\CCn3c2nc2ccccc2c3=O)cc1 (stereo not drawn)", 31.6],
  ["O=C(O)C1NCCC2c3ccccc3NC12 (stereo not drawn)", 20.7]
]}
